B1: library; numbered along this chain (parent)
chain: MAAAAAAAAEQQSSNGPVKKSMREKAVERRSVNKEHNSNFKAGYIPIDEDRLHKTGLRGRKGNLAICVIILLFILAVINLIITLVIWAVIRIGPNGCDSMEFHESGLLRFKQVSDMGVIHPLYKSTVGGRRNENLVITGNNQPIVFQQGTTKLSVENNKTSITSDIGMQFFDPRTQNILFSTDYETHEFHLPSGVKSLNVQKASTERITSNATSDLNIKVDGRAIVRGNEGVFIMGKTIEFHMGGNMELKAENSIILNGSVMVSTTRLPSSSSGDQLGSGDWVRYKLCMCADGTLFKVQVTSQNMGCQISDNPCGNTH

Variants of: B1
measurement.notes: SGCB cell-surface expression functional score (HA stain, bin4 vs bin1, normalised to synonymous) (log10 ratio); higher = more cell-surface SGCB (functional)
value.type: SGCB cell-surface expression functional score (log10)

Examples with their reported SGCB cell-surface expression functional score (log10) follow.
{"columns": ["variant.string", "result"],
 "data": [
  ["V68M", -0.35],
  ["V118N", -0.97]
]}

Kindly give each listed record's SGCB cell-surface expression functional score (log10).
1. R58H
2. I66M
3. D292N

1. 0.19
2. 0.3
3. -0.13

Could you tell me SGCB cell-surface expression functional score (log10) for each of these variants? They are listed below.
1. I178R
2. L191S
3. V27N
4. T205L
5. V195I
6. I208F
7. N140R
8. I81V

-0.26
-1.19
0.45
-0.11
0.09
-0.61
0.05
-0.03

For each of the variants below, note its SGCB cell-surface expression functional score (log10).
1. S161C
2. Y123T
3. G259N
4. E248V

1: -0.11; 2: -0.12; 3: -0.51; 4: 0.52

Please look at the items below and tell me SGCB cell-surface expression functional score (log10) for each one, in order.
1. V18G
2. I256P
3. A65D

0.04
-0.12
0.08

Please look at the items below and tell me SGCB cell-surface expression functional score (log10) for each one, in order.
1. K61A
2. G139S

[-0.12, 0.06]
